test system: U2OS; assay: cell viability relative to DMSO; higher = less toxic; conditions: 72 h; 10 nM
Some compounds, each annotated with its measured cell viability.
// return numeric value only (unit: %, not printed)

Illustrative cases are given below, each with its answer.
{"compound": "Cn1c(COP(=O)(NCCBr)NCCBr)cnc1[N+](=O)[O-]", "target": "U2OS", "readout": "cell viability", "unit-info": "%", "recorded-value": 105}
{"compound": "O=C(Oc1ccc([N+](=O)[O-])cc1)N1CCN(Cc2cccc(Oc3ccccc3)c2)CC1", "target": "U2OS", "readout": "cell viability", "unit-info": "%", "recorded-value": 100}
{"compound": "CC(=O)c1ccc2c(c1)N(CCCN(C)C)c1ccccc1S2", "target": "U2OS", "readout": "cell viability", "unit-info": "%", "recorded-value": 95}

Observed cell viability on U2OS, entry C=CC[N@@+]12CC[C@@]34c5ccccc5N5/C=C6/[C@H]7C[C@H]8[C@@]9(CC[N@@+]8(CC=C)C/C7=C/CO)c7ccccc7N(/C=C(/[C@@H](C[C@@H]31)/C(=C\CO)C2)[C@H]54)[C@@H]69 , equals 99

* * *

tested on: Caco-2; experiment: cell viability relative to DMSO; higher = less toxic; settings: 72 h; 10000 nM
Where a name gives a salt, the structure may show the parent alone.
Parameter: cell viability. Scope: all listed entries.
Report only the number, with the unit % understood.

Worked cases, answers included:
{"compound": "N=C(N)Nc1ccc(Cl)cc1", "cell viability [%]": 95.6}
{"compound": "Cc1ccc(-n2nc(C(C)(C)C)cc2NC(=O)Nc2ccc(OCCN3CCOCC3)c3ccccc23)cc1", "cell viability [%]": 93.6}

N[C@@H](C[C@@H](F)C(=O)O)C(=O)O yielded cell viability of 110

cell viability measured on CN[C@H]1CC[C@@H](c2ccc(Cl)c(Cl)c2)c2ccccc21 [SERTRALINE HYDROCHLORIDE] = 84.4

* * *

test system: Vero E6; test: cell viability relative to DMSO; higher = less toxic; conditions: 72 h; 100 nM
readout: cell viability
Just so you know, I need the unit written after the number.

Sample records with cell viability:
{"compound": "CCC(C)(Oc1ccc(C2(c3ccc(OC(C)(CC)C(=O)O)cc3)CCCCC2)cc1)C(=O)O (stereo not drawn) [clinofibrate]", "recorded-value": "96%"}
{"compound": "O=c1cc(N2CCOCC2)oc2c1ccc1ccccc12", "recorded-value": "98.3%"}
{"compound": "CCCCc1oc2ccc(NS(C)(=O)=O)cc2c1C(=O)c1ccc(OCCCN(CCCC)CCCC)cc1", "recorded-value": "107%"}
{"compound": "CO[C@H]1CC=C2CCN3CCC4=C(CC(=O)OC4)[C@]23C1", "recorded-value": "95%"}
{"compound": "CC(NCCc1ccc(O)cc1)C(O)c1ccc(O)cc1 (stereo not drawn)", "recorded-value": "102%"}

compound O=C(CCCc1ccc(-c2ccccc2F)cc1)Nc1ccc(O)cc1 , cell viability observed: 99.6%

Value of cell viability reported for the compound Cc1oc(=O)oc1COC(=O)C1=C([C@H]2CCCO2)S[C@@H]2[C@@H]([C@@H](C)O)C(=O)N12 is 97.6%

So, C/C1=C/C[C@@H](/C(C)=C/c2csc(C)n2)OC(=O)C[C@H](O)C(C)(C)C(=O)[C@H](C)[C@@H](O)[C@@H](C)CCC1 ? Its cell viability was 45.1%

Notebook: CCc1c(C(=O)NCCc2ccc(N3CCCCC3)cc2)[nH]c2ccc(Cl)cc12 , cell viability read as 105%

Recorded cell viability (compound CCc1cc(O)c(Oc2ccc(C(N)=O)cc2F)cc1F ): 99.8%

The reported value for CC(C)[N+](C)(CCC(C(N)=O)(c1ccccc1)c1ccccc1)C(C)C [isopropamide-iodide] in terms of cell viability is 101%

Lookup result for Nc1cccc2c(=O)[nH][nH]c(=O)c12 [monosodium-alpha-luminol] ; measured cell viability: 96.1%

Form field cell viability, entry Cc1cccc(/C=N/Nc2cc(N3CCOCC3)n3nc(-c4ccncc4)cc3n2)c1 : 96.7%

So for CCS(=O)(=O)N1CCN(c2ccc(Nc3ncc(C(N)=O)c(NC4CC4)n3)cc2)CC1 , the logged cell viability turned out to be 99.5%

For Cc1cc(-c2cc(O)ccc2Cl)cc2nnc(Nc3ccc(OCCN4CCCC4)cc3)nc12 the compound record lists cell viability as 96.3%

cell viability recorded for this compound, N#CC1(c2ccc(NC(=O)c3cccnc3NCc3ccncc3)cc2)CCCC1 , is 98.3%

GET /value?item= COc1cc(-n2cnc3cc(-c4ccc(Cl)cc4)sc3c2=O)ccc1OCCN1CCCC1 &field=cell viability returns 107%

Measured cell viability, Cc1ccccc1N1CCN(S(=O)(=O)C[C@]23CC[C@H](C[C@@H]2NC(=O)[C@@H](N)CCS(C)(=O)=O)C3(C)C)CC1 : 98%

* * *

test system: U2OS; experiment: cell viability relative to DMSO; higher = less toxic; conditions: 72 h; 1000 nM
Examples of compounds with documented cell viability follow.
Note: unit % is implicit; provide only the numeric part.

Record excerpt, results attached:
{"compound": "Cc1ccc(-n2nc(C(C)(C)C)cc2NC(=O)Nc2ccc(OCCN3CCOCC3)c3ccccc23)cc1 [doramapimod]", "cell viability [%]": 93.7}
{"compound": "c1ccc(CNc2nc(NCc3ccccc3)c3ccccc3n2)cc1 [DBeQ]", "cell viability [%]": 90.5}
{"compound": "CN1C[C@H](CNC(=O)OCc2ccccc2)C[C@@H]2c3cccc4c3c(cn4C)C[C@H]21 [metergoline]", "cell viability [%]": 96.4}
{"compound": "COc1ccc2c(c1)[C@]13CCCC[C@@H]1[C@H](C2)N(C)CC3 [dextromethorphan]", "cell viability [%]": 95.3}
{"compound": "CO[C@@]1(NC(=O)C(C(=O)O)c2ccc(O)cc2)C(=O)N2C(C(=O)O)=C(CSc3nnnn3C)CO[C@@H]21 (stereo partly drawn) [moxalactam]", "cell viability [%]": 103}

Here O=C(Nc1ccc2[nH]ccc2c1)c1ccccc1 [OAC2] was tested on U2OS, and its cell viability came to 104

Form: item COc1ccnc2[nH]cc(C(=O)C(=O)N3CCN(C(=O)c4ccccc4)C[C@H]3C)c12 [BMS-806] ; test system U2OS; cell viability: 105

// compound O=C(O[C@@H]1Cc2c(O)cc(O)cc2O[C@@H]1c1cc(O)c(O)c(O)c1)c1cc(O)c(O)c(O)c1 [epigallocatechin-gallate-(-)] , assay U2OS, cell viability value: 97

* * *

system: A549-ACE2; assay: drug-induced phospholipidosis relative to tamoxifen; higher = more phospholipidosis; conditions: 6.66667 µM; 24 h
Parameter: drug-induced phospholipidosis. Scope: all listed entries.
Numbers only; they are read as %.

The following compounds have reported results that may help.
{"compound": "CC(C)n1nc(C#Cc2ccccc2)c2c(N)ncnc21", "unit-info": "%", "recorded-value": 41.4}
{"compound": "C[C@H](Oc1cc(-c2cnn(C3CCNCC3)c2)cnc1N)c1c(Cl)ccc(F)c1Cl [crizotinib-(S)]", "unit-info": "%", "recorded-value": 107}

# drug-induced phospholipidosis (compound: CN(C(=O)Cc1ccc(Cl)c(Cl)c1)[C@H](CN1CCCC1)c1ccccc1 ) is 90.6

Record NC(=O)c1noc([C@H](CCCC2CCCCC2)CC(=O)NO)n1 . Reported drug-induced phospholipidosis: 16.7

Entry under test: CCCCc1oc2ccc(NS(C)(=O)=O)cc2c1C(=O)c1ccc(OCCCN(CCCC)CCCC)cc1 . Its drug-induced phospholipidosis was 94.6

Per the record, CCN(CC)CCO[C@H]1CC[C@@]2(C)C(=CC[C@@H]3[C@@H]2CC[C@]2(C)C(=O)CC[C@@H]32)C1 has drug-induced phospholipidosis of 114

* * *

test system: Caco-2; assay: cell viability relative to DMSO; higher = less toxic; settings: 72 h; 100 nM
Documented cell viability across a set of compounds
Could you write the number and then its unit?

Recorded cell viability, per entry:
{"compound": "N[C@@H](C[C@@H](F)C(=O)O)C(=O)O", "recorded-value": "97.8%"}
{"compound": "C[C@@H](CCCCC(=O)Nc1ccc(C(F)(F)F)cc1)NCCc1c[nH]cn1", "recorded-value": "87%"}
{"compound": "CCC(C)(Oc1ccc(C2(c3ccc(OC(C)(CC)C(=O)O)cc3)CCCCC2)cc1)C(=O)O (centres undefined) [clinofibrate]", "recorded-value": "99%"}
{"compound": "COc1cc(N)c(Cl)cc1C(=O)OCCN1CCCCC1", "recorded-value": "86%"}
{"compound": "COc1ccc2cc(CCC(C)=O)ccc2c1", "recorded-value": "89.2%"}
{"compound": "O=S(=O)(NCCNC/C=C/c1ccc(Br)cc1)c1cccc2cnccc12", "recorded-value": "98.7%"}

Entry CC(C)(C)n1nc(-c2ccc(Cl)cc2)c2c(N)ncnc21 , cell viability reported as 100%

COC(=O)Nc1ccc(-c2nc(N3CCOCC3)c3cnn(C4CCN(C(=O)OC)CC4)c3n2)cc1 yielded cell viability of 97.3%

For NC1(c2ccc(-c3nc4ccn5c(=O)[nH]nc5c4cc3-c3ccccc3)cc2)CCC1 the compound record lists cell viability as 87.1%
